Listed here are compounds together with their documented pKd.
target: GDP-bound KRAS wild-type protein (Homo sapiens, UniProt P01116); test: Binding to KRAS by surface plasmon resonance (SPR), dissociation constant KD; settings: Single Cycle Kinetics
Sequence (P01116 1-188 isoform P01116-2): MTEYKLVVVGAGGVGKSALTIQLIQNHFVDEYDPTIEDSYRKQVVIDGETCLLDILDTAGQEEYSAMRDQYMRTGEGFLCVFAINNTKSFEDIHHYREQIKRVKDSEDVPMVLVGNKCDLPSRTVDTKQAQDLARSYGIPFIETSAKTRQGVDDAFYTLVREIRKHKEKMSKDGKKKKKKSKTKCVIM
Here pKd is given on a logarithmic scale as minus log10 of the concentration in mol/L.

Can you share its pKd? I mean this compound: CCO[C@@H]1C[C@H]2C(=O)NC3(CCC3)C(=O)N(C)[C@@H](C3CCCC3)C(=O)N(C)[C@H](C(=O)N(C)C)CC(=O)N(C)[C@@H](CC)C(=O)N[C@@H]([C@@H](C)CC)C(=O)N3CC[C@@H]3C(=O)N(C)[C@H]3C/C=C\CCN(C3=O)[C@@H](Cc3ccc(C(F)(F)F)cc3)C(=O)N(C)CC(=O)N[C@@H](CCc3cc(F)c(C(F)(F)F)c(F)c3)C(=O)N2C1
7.77

How about CCC[C@H]1C(=O)N[C@@H](C2CCCC2)C(=O)N(C)CC(=O)N(C)[C@H]2C/C=C\CCN(C2=O)[C@@H](Cc2ccc(C(F)(F)F)cc2)C(=O)N(C)CC(=O)N[C@@H](CCc2ccc(C(F)(F)F)c(OC)c2)C(=O)N2CC3(CC3)C[C@H]2C(=O)N(C)C2(CCC2)C(=O)N(C)[C@@H](CC(C)(C)C)C(=O)N(C)[C@H](C(=O)N(C)C)CC(=O)N1C ?
10.16

Continuing:
Can you share its pKd? I mean this compound: CCO[C@@H]1C[C@H]2C(=O)NC3(CCC3)C(=O)N(C)[C@@H](C3CCCC3)C(=O)N(C)[C@H](C(=O)N(C)C)CC(=O)N(C)[C@@H](CC)C(=O)N[C@@H]([C@@H](C)CC)C(=O)N(C)CC(=O)N(C)[C@H]3CCCCCN(C3=O)[C@@H](Cc3ccc(F)cc3Cl)C(=O)N(C)CC(=O)N[C@@H](CCc3cc(F)c(C(F)(F)F)c(F)c3)C(=O)N2C1
9.72
